# Tested on: UGT enzymes of human liver microsomes
# Procedure Text: Inhibition of raloxifene glucuronidation (G1, G2) in human liver microsomes
# Format: biochemical
# Test Settings: raloxifene 50 μM; inhibitor 50 μM
Endpoint Label: % of control metabolism, raloxifene G2

Worked examples follow.
{"columns": ["Molecule", "Study Target", "% of control metabolism, raloxifene G2"],
 "data": [
  ["CC/C(=C(/CC)c1ccc(O)cc1)c1ccc(O)cc1 [Diethylstilbestrol, reference compound]", "UGT enzymes of human liver microsomes", "58 (2) %"],
  ["O=C(O[C@@H]1Cc2c(O)cc(O)cc2O[C@H]1c1cc(O)c(O)c(O)c1)c1cc(O)c(O)c(O)c1 [Gallocatechin gallate]", "UGT enzymes of human liver microsomes", "47 (2) %"],
  ["CCCOC(=O)c1cc(O)c(O)c(O)c1 [Propyl gallate]", "UGT enzymes of human liver microsomes", "48 (6) %"]
]}

Continue with the next molecule.
Input `O=c1c(O)c(-c2ccc(O)c(O)c2)oc2cc(O)cc(O)c12` . Output % of control metabolism, raloxifene G2: 15 (1) %

###

Known % of control metabolism, raloxifene G2 of a selection of compounds
# Test system: UGT enzymes of human liver microsomes
# Procedure Text: Inhibition of raloxifene glucuronidation (G1, G2) in human liver microsomes
# Format: biochemical
# Test Settings: raloxifene 50 μM; inhibitor 100 μM

Some compounds with recorded % of control metabolism, raloxifene G2:
{"columns": ["Compound", "Experimental Value"],
 "data": [
  ["O=C(O[C@@H]1Cc2c(O)cc(O)cc2O[C@@H]1c1cc(O)c(O)c(O)c1)c1cc(O)c(O)c(O)c1 [Epigallocatechin gallate]", "27 (2) %"],
  ["COc1c(C)c2c(c(O)c1C/C=C(\\C)CCC(=O)O)C(=O)OC2 [Mycophenolic acid, reference compound]", "89 (2) %"],
  ["O=C(O)Cc1ccccc1Nc1c(Cl)cccc1Cl [Diclofenac, reference compound]", "53 (3) %"]
]}

Proceeding to the next compound to report its % of control metabolism, raloxifene G2.
Input CC/C(=C(/CC)c1ccc(O)cc1)c1ccc(O)cc1 [Diethylstilbestrol, reference compound] . Output % of control metabolism, raloxifene G2: 43 (0) %

###

Let's look at some compounds and their measured activity at 15 min, 50 µM.
# Study Target: UniProt:P22309
# Procedure Text: Inhibition of raloxifene glucuronidation by recombinant UGT1A1 Supersomes
# Test Settings: human, recombinant UGT1A1 Supersomes, pH 7.5, probe raloxifene 50 μM (formation of glucuronide G2), Inhibition of raloxifene glucuronidation, G2, UGT1A1, G2; inhibitor 50 μM; raloxifene 50 μM, 250 μg/ml Supersomes, 1 mM UDPGA, 15 min
Give the value in % but do not write % after it.

{"columns": ["Compound", "Experimental Value"],
 "data": [
  ["O=C(O[C@@H]1Cc2c(O)cc(O)cc2O[C@H]1c1cc(O)c(O)c(O)c1)c1cc(O)c(O)c(O)c1 [Gallocatechin gallate]", 32],
  ["CCCCCCCCOC(=O)c1cc(O)c(O)c(O)c1 [Octyl gallate]", 31],
  ["O=C(OC[C@H]1O[C@@H](OC(=O)c2cc(O)c(O)c(OC(=O)c3cc(O)c(O)c(O)c3)c2)[C@H](OC(=O)c2cc(O)c(O)c(OC(=O)c3cc(O)c(O)c(O)c3)c2)[C@@H](OC(=O)c2cc(O)c(O)c(OC(=O)c3cc(O)c(O)c(O)c3)c2)[C@@H]1OC(=O)c1cc(O)c(O)c(OC(=O)c2cc(O)c(O)c(O)c2)c1)c1cc(O)c(O)c(OC(=O)c2cc(O)c(O)c(O)c2)c1 [Tannic acid]", 0.9]
]}

API: the following record is the query input.
For CC/C(=C(/CC)c1ccc(O)cc1)c1ccc(O)cc1 [Diethylstilbestrol, reference compound] the compound record lists activity at 15 min, 50 µM as 27

###

# Tested on: UGT enzymes of human liver microsomes
# Procedure Text: Inhibition of raloxifene glucuronidation (G1, G2) in human liver microsomes
# Format: biochemical
# Test Settings: liver lot 032101; inhibitor 50 μM
# Text: Compounds were eluted using a binary solvent gradient system. […] Solvent B was methanol. […] Detection was at 280 nm.
Endpoint Label: % of control metabolism, raloxifene G1

Some entries whose results are on file:
{"columns": ["Compound", "% of control metabolism, raloxifene G1"],
 "data": [
  ["O=C(O[C@@H]1Cc2c(O)cc(O)cc2O[C@@H]1c1cc(O)c(O)c(O)c1)c1cc(O)c(O)c(O)c1 [Epigallocatechin gallate]", "54 (2) %"],
  ["O=C(O[C@@H]1Cc2c(O)cc(O)cc2O[C@H]1c1cc(O)c(O)c(O)c1)c1cc(O)c(O)c(O)c1 [Gallocatechin gallate]", "29 (1) %"],
  ["CCCCCCCCOC(=O)c1cc(O)c(O)c(O)c1 [Octyl gallate]", "45 (1) %"],
  ["O=c1c(O)c(-c2ccc(O)c(O)c2)oc2cc(O)cc(O)c12", "25 (1) %"],
  ["O=C(O[C@@H]1Cc2c(O)cc(O)cc2O[C@@H]1c1ccc(O)c(O)c1)c1cc(O)c(O)c(O)c1 [Epicatechin gallate]", "47 (4) %"]
]}

Below: the item to evaluate.
# % of control metabolism, raloxifene G1 (compound: O=C(O)c1cc(-c2ccc(F)cc2F)ccc1O [Diflunisal, reference compound] ) is 52 (1) %

###

# Study Target: UniProtKB P35503
# Sequence (P35503 29-534): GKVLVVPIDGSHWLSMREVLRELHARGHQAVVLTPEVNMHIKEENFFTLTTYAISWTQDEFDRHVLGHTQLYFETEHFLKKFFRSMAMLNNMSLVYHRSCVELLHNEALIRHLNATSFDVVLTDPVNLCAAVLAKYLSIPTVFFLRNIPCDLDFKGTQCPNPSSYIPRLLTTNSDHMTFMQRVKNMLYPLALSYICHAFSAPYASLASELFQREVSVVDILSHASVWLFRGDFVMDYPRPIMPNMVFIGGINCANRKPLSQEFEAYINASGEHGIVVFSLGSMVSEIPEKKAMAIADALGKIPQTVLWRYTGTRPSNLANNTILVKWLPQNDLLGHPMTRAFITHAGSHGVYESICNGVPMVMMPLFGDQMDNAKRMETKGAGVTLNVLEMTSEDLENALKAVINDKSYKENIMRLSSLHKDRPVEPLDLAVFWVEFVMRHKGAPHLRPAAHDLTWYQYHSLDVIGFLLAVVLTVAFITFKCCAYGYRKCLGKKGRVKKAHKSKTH
# Procedure Text: Inhibition of raloxifene glucuronidation by recombinant UGT1A3 Supersomes
# Test Settings: human, recombinant UGT1A3 Supersomes, pH 7.5, probe raloxifene 50 μM (formation of glucuronide G1), Inhibition of raloxifene glucuronidation, G1, UGT1A3, G1; inhibitor 50 μM; raloxifene 50 μM, 250 μg/ml Supersomes, 1 mM UDPGA, 15 min
Endpoint Label: activity at 15 min, 50 µM
State the result as a value with its unit after it.

{"columns": ["Compound", "Study Target", "Experimental Value"],
 "data": [
  ["CCCCCCCCOC(=O)c1cc(O)c(O)c(O)c1 [Octyl gallate]", "UniProtKB P35503", "12%"],
  ["O=c1c(O)c(-c2ccc(O)c(O)c2)oc2cc(O)cc(O)c12", "UniProtKB P35503", "28%"],
  ["CC/C(=C(/CC)c1ccc(O)cc1)c1ccc(O)cc1 [Diethylstilbestrol, reference compound]", "UniProtKB P35503", "14%"]
]}

For this compound ( O=C(O[C@@H]1Cc2c(O)cc(O)cc2O[C@H]1c1cc(O)c(O)c(O)c1)c1cc(O)c(O)c(O)c1 [Gallocatechin gallate] ), measured activity at 15 min, 50 µM is 39%

// field: activity at 15 min, 50 µM; key: `O=C(OC[C@H]1O[C@@H](OC(=O)c2cc(O)c(O)c(OC(=O)c3cc(O)c(O)c(O)c3)c2)[C@H](OC(=O)c2cc(O)c(O)c(OC(=O)c3cc(O)c(O)c(O)c3)c2)[C@@H](OC(=O)c2cc(O)c(O)c(OC(=O)c3cc(O)c(O)c(O)c3)c2)[C@@H]1OC(=O)c1cc(O)c(O)c(OC(=O)c2cc(O)c(O)c(O)c2)c1)c1cc(O)c(O)c(OC(=O)c2cc(O)c(O)c(O)c2)c1` ; value = 3%

###

# Study Target: UGT1A1 (Homo sapiens, UniProt P22309)
# Sequence (P22309 26-533): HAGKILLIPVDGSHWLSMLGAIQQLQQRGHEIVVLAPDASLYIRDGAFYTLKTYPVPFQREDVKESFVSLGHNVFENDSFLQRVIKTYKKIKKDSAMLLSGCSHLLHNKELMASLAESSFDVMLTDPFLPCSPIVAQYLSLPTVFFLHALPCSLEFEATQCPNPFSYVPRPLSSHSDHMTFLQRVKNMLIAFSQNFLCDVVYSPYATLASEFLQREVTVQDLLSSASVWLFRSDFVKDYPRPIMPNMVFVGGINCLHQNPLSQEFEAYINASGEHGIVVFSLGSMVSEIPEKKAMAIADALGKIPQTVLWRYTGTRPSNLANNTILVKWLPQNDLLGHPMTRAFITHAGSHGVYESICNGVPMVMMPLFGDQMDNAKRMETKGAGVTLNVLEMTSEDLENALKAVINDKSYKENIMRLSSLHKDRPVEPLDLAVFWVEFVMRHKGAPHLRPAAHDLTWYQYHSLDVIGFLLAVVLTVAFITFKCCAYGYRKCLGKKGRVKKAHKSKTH
# Procedure Text: in vitro
# Test Settings: pH 7.5, % of control metabolism, raloxifene G2
Endpoint Label: activity at 15 min, 10 µM (%)
Enter your answer as a number in %; do not include the unit.

{"columns": ["Compound", "Study Target", "activity at 15 min, 10 µM (%)"],
 "data": [
  ["COc1cc(C2Oc3cc([C@H]4Oc5cc(O)cc(O)c5C(=O)[C@@H]4O)ccc3OC2CO)ccc1O (some centres unmarked)", "UGT1A1 (Homo sapiens, UniProt P22309)", 63]
]}

Then this compound:
Memo: `O=c1c(O)c(-c2ccc(O)c(O)c2)oc2cc(O)cc(O)c12` , reported activity at 15 min, 10 µM: 43

###

This listing pairs compounds with measured residual metabolism (% of control), E2-17-β-D-glucuronide.
# Test system: UGT enzymes of human liver microsomes
# Construct: residual metabolism (% of control), E2-17-β-D-glucuronide; other: liver 032101; residual metabolism (% of control), E2-17-β-D-glucuronide
# Procedure Text: Inhibition of estradiol (E2) glucuronidation in human liver microsomes
# Format: biochemical
# Test Settings: liver 032101; E2 50 μM; inhibitor 100 μM

{"columns": ["Compound", "Experimental Value"],
 "data": [
  ["CC/C(=C(/CC)c1ccc(O)cc1)c1ccc(O)cc1 [Diethylstilbestrol, reference compound]", "217 (5) %"],
  ["O=c1c(O)c(-c2ccc(O)c(O)c2)oc2cc(O)cc(O)c12", "50 (3) %"]
]}

response.value for CCCCCCCCOC(=O)c1cc(O)c(O)c(O)c1 [Octyl gallate] (field: residual metabolism (% of control), E2-17-β-D-glucuronide) = 74 (2) %
